Tested on: PfAP2-EXP AP2 domain (GST-tagged)
PROCEDURE_TEXT: gcPBM binding intensity (ln(normalized median fluorescence intensity)); higher = stronger DNA binding
Whole data set: some 25,000 sequences, median “ln(normalized median fluorescence intensity)” near 8.6, cut for the highest 2% near 10. The list comes from a sample in which the highest values are over-represented; it also holds close analogues and randomly drawn sequences.
REPORTED_PROPERTY: gcPBM binding intensity (ln)

TTATTAATATTGCATGCACACTATATAATAATTGAA [CACACA_site8258] :: 10.1
AAAAGATAATTATGCACACACACACCCCCACCCAAC [CACACA_site2570] :: 10.7
AAGGATCACCCACAAACACACATATATATATATATA [CACACA_site559] :: 10.4
GAATATTAAACAAACACACACACATATATTTATATA [CACACA_site7563] :: 8.63
TATAATATAAGGATCACACACAAACACCCATATATA [CACACA_site4468] :: 8.74
TACATAAATTTTAATACATGCAAATAAAATATATAA [TGCATGCA_site131] :: 8.88
TATATATATATGTATACACACATATGTATGTTATGT [CACACA_site4053] :: 9.65
GTAATTTTATATGGTTGTACATATATATATATATAT [XGTACX_site6659] :: 10.2
AAAAGATAATTATGCACACACACACCCAGACACAAC [CACACA_site5428] :: 9.11
AAAAAAAATATAATATGTACATATCTATATATCAAC [XGTACX_site4881] :: 8.55
CTTACATAAAATATCACACACATAAAAAAACAATAT [CACACA_site1901] :: 8.87
ATTTTATTTATATACACACACATATATATATTATAT [CACACA_site822] :: 8.77
GCTCAATGTTTTACATGTACATATATATATATATAT [XGTACX_site8210] :: 10.2
TATATATATATATACACATGCAAAAATTTTTAATTT [TGCATGCA_site82] :: 10.2
AATTTTTTATTAAACACACAAACATATATATATATA [CACACA_site1937] :: 9.94
ATATATATATATATATGTACATATATTTATTTATTG [XGTACX_site6267] :: 10.2
ATTTATTTATTTATATGTACATATATATATATATAT [XGTACX_site339] :: 10.1
GAATATTAAACAAACACACACACATATATATATATA [CACACA_site3382] :: 10.1
TATTACACATATTATACACACATATATTATATATAT [CACACA_site4951] :: 8.69
TTTTATTAATATTGCATGCACACTATATAATAATTG [CACACA_site1049] :: 10
ATATATATATATATATGTACATATATTTATATTTAT [XGTACX_site6179] :: 9.99
TATAAACACCCATATAAACACACATATAAACCAACA [CACACA_site8790] :: 8.73
ACTTTACGAATTAAGAGTACTTATTTAAGGAACACT [XGTACX_site7919] :: 8.52
CACCCACACCAACACACACACATATATATATATATA [CACACA_site362] :: 10.4
AATAATTTTTTAAACACACACACATATATATATATA [CACACA_site95] :: 10.1
TATACTTTATATATTTTGTATATATATTTTTTTTAT [TGCATGCA_negctrl_site530] :: 8.43
GTCATATATAATTGTTGTACATTTTTATAATTATGT [XGTACX_site8091] :: 8.86
TTACTACTATATTATACACACATATATTTATTTATA [CACACA_site7274] :: 8.7
AATATAATATAAGGATCACACACAAACACCCATATA [CACACA_site8084] :: 8.91
TTTTTTAAAAATATTATCATCGTAACAAGAAATCGA [CACACA_negctrl_site1111] :: 8.45
CACACCCACCAACACACACACACACCCACCCATATA [CACACA_site366] :: 8.61
AGTATATAAAATACTGTATCGATGGGGGAGGGCGCA [CACACA_negctrl_site1612] :: 9.97
TATAAAATACTGTATCGATGGGGGAGGGCGCAGGGG [TGCATGCA_negctrl_site250] :: 10.3
AAAAAAGATAATTATGCACACACACCCACCCACCCA [CACACA_site8825] :: 9.57
GTTAATATTTTTGGGGGTACTTAAAAAAAAAAAAAA [XGTACX_site1477] :: 9.35
TGTGTATATTATATGTGTACATATCAATGTTTATAT [XGTACX_site1885] :: 8.61
ATATATATATATATATGTACATATGTCAACTGTCTA [XGTACX_site8636] :: 10.3
TTATATTAAACAAACACACACATATATATATATATA [CACACA_site2382] :: 10.1

* * *

Measured gcPBM binding intensity (ln) by item
Tested on: PfAP2-EXP AP2 domain (GST-tagged)
PROCEDURE_TEXT: gcPBM binding intensity (ln(normalized median fluorescence intensity)); higher = stronger DNA binding
In all, about 25,000 sequences were measured (“ln(normalized median fluorescence intensity)”: median about 8.6, highest 2% from about 10 on). Only a selection was taken, and the highest values are over-represented in it overall.
REPORTED_PROPERTY: gcPBM binding intensity (ln)

TTATACAACAAGAAAATTATAAAATGTAACATATAT [GTGCAC_negctrl_site406] :: 8.53
CATATACATTGTATATGTACATATATATATATATAT [XGTACX_site3772] :: 10.1
CTTTTAAATTATTTTTGTACATAATTATATATATAT [XGTACX_site4128] :: 9.4
TATATATATATATATATAATACGAATTTGTAGTACA [TGCATGCA_negctrl_site224] :: 10.2
ATACTTTTATTTTTGGTGCATATATCATGTAGACGT :: 9.03
ATAAGAAGGAACATAAATATATCATAAAAAAAAAAA [GTGCAC_negctrl_site169] :: 8.56
TATATTAATAATAAGTGTACATATATATATATTTTT [XGTACX_site288] :: 8.36
GTATTTTTAAATGACACACACATATATATATATATA [CACACA_site1662] :: 10.2
ATTATATAATAATGCATGCACCTTATTTTCATTTCA [GTGCAC_site9922] :: 9.99
TTAATAAAAGCCCATGCACACCTTAGAAAGTTTTAT [CACACA_site8003] :: 8.43
CAAGGAACCAGACACACACACATAAATGTATTTATA [CACACA_site6491] :: 8.39
ATTTATTATTATATCACACATAATATATTAAATGAT [CACACA_site5821] :: 8.28
ATTTATATTAAAAGTGTGCACTTTTTTTTTTTTTTT :: 8.67
GAGGTCTTTTTTAATGTGCACATATATATATATATA :: 10.3
TTTTTTTTTGGGGGTGCATGCAAGACATATATTTAA [TGCATGCA_site228] :: 10.4
ATAATATCTTTATGTGTGCACATATATATATATATA :: 10.1
ATATATATCTTTTGTGTGCACATATATATAATATAT :: 8.97
CTTAAGTAAAATTAAAGTACATGGACAAAAAATATA [XGTACX_site7900] :: 8.87
TGCAAAAAAAAAAAAAAAAAATATATGGAAATATAT [GTGCAC_negctrl_site257] :: 8.54
TTTTTTATTTTAAAAACATGCATAAAATATAATAGT [TGCATGCA_site762] :: 8.94
ATATTCATATATTTACGTACATACATTTATATATTT [XGTACX_site7644] :: 8.85
ATGTGTATATATTATTGTACATATATATATATATAT [XGTACX_site4627] :: 10.3
ACAAAAAAATGAAAAGAAAAAGATATACCCCAATAT [CACACA_negctrl_site509] :: 8.99
CTTGAAAGATTTTATTGTACTCATAAGATACATTTC [XGTACX_site3178] :: 8.31
TTTTAAAAAGATCATTAAAAAAAAAAAAAGAACAAA [CACACA_negctrl_site528] :: 8.53
GGATAAAATGCTACGAGTACATAAGCATTTTTCCCT [XGTACX_site7796] :: 8.73
ATATCTTAAATTATTTGTACATATATATATATATAT [XGTACX_site8034] :: 10.3
ATAATACGAATTTGTAGTACATTTATAATAACATGA [XGTACX_site2614] :: 8.37
ATATTATATAATAATGCATGCACCTTATTTTCATTT [TGCATGCA_site405] :: 10.2
TATAAAAAAAACGAAAAAAAAAAAAAAAATACAGGA [TGCATGCA_negctrl_site585] :: 8.54
AGAAGGATATTATGAAGTACACATATTGTATATGGT [XGTACX_site7503] :: 8.47
ATGGAAATAAAAAAAAAAAAAAAAAAAAATATATAT [GTGCAC_negctrl_site67] :: 8.36
CATATTATTATTTTGGTGCATACTTATATATATTTT :: 8.75
TATATATAAATATATGTGCACTTTTTATATTTATAT :: 9.06
ATATAAAAATTAAAATGTACATATCTTATTATAATA [XGTACX_site983] :: 8.32
AAAAAAAAAAAAAAAAATATATTTATGAAATAAAAA [TGCATGCA_negctrl_site262] :: 8.4
ATGTGTGTATTTTATAGTACAGTTACAAGCATTTTT [XGTACX_site6351] :: 8.57
CATACACATATATATTGTACACATATATGTATGTAT [XGTACX_site4030] :: 8.45
ATATATATATATATATGTACATATTGTATCTTATAC [XGTACX_site5466] :: 10.2
